Tested on: OVCAR-3 ovarian
Assay text: NCI tumour cell line growth inhibition, 48 h

{"Molecule": "CCn1c(SC)nnc1-c1cc2c([nH]c3ccccc32)c(-c2cccc(O)c2)n1", "GI50": "1.67 µM"}
{"Molecule": "O=C1COc2c(CCNCCN(C(=O)CCNCCc3ccc(Cl)c(Cl)c3)C3CCCCC3)ccc(O)c2N1", "GI50": "16.8 µM"}
{"Molecule": "Cc1cc(N(CCCl)CCCl)ccc1/C=N\\NC(=O)c1cccnc1", "GI50": "23.1 µM"}
{"Molecule": "COc1ccc(Cl)cc1Nc1nc(C(F)(F)F)ccc1C(=O)N/N=C/c1ccc(Cl)cc1", "GI50": "0.576 µM"}
{"Molecule": "OCCn1c(-c2ccncc2)c(-c2ccc(F)cc2)c2ncccc21", "GI50": "> 25 µM"}

----------
Test system: RPMI-8226 leukemia
Assay text: NCI tumour cell line growth inhibition, 48 h
Property name: TGI (µM)

{"Compound": "O=C(Nc1ccccc1)Oc1ccccc1C1CCCCC1", "Operator symbol": "=", "Result value": 52}
{"Compound": "Nc1ccc2ncc(Nc3ccc(Cl)c(Cl)c3)nc2c1", "Operator symbol": ">", "Result value": 100}
{"Compound": "Cc1cccc(Cc2cnc(NC(=O)CCCOc3ccc(Cl)cc3)s2)c1", "Operator symbol": ">", "Result value": 100}
{"Compound": "O=c1cccccc1[O-].O=c1cccccc1[O-].O=c1cccccc1[O-].[Dy+3]", "Operator symbol": "=", "Result value": 76.2}
{"Compound": "Brc1ccc2c(c1)-c1ccccc1C1=NCCN12", "Operator symbol": "=", "Result value": 4.95}
{"Compound": "Cn1ncc2c(c1=O)Nc1ccccc1S2(=O)=O", "Operator symbol": "=", "Result value": 97.6}
{"Compound": "C/C(=N\\NC(=O)c1ccncc1)c1ccccc1O", "Operator symbol": ">", "Result value": 100}
{"Compound": "O=C(c1ccccc1)n1c2ccc(Br)cc2c2nc3ccccc3nc21", "Operator symbol": ">", "Result value": 100}
{"Compound": "CC(=O)Oc1cc(OC(C)=O)c2c(c1C)CC[C@@H]1[C@@H]2CC[C@]2(C)[C@@H](OC(C)=O)CC[C@@H]12", "Operator symbol": "=", "Result value": 31.3}
{"Compound": "CCCSC1=N/C(=C\\c2ccco2)C(=O)N1", "Operator symbol": ">", "Result value": 100}
{"Compound": "N/N=C(\\N)SCc1ccc(N=C=S)cc1", "Operator symbol": ">", "Result value": 100}
{"Compound": "Nc1ccc(N)c2c1C(=O)c1cccc([N+](=O)[O-])c1C2=O", "Operator symbol": ">", "Result value": 100}
{"Compound": "COc1ccc(-c2cc(-c3ccc(Nc4ccnc5cc(C(F)(F)F)ccc45)cc3)nc(N)c2C#N)c2ccccc12", "Operator symbol": ">", "Result value": 100}
{"Compound": "Cc1c(Cl)cc(C(C)(C)C)c(O)c1Cc1c(C)c(Cl)cc(C(C)(C)C)c1O", "Operator symbol": "=", "Result value": 0.707}
{"Compound": "Cn1c(=O)c(-c2c(Cl)cccc2Cl)cc2cnc(Nc3ccc(N4CCOCC4)cc3)nc21", "Operator symbol": "=", "Result value": 1.78}
{"Compound": "COc1ccc2c(C=O)c3n(c(=O)c2c1OC)CCc1cc2c(cc1-3)OCO2", "Operator symbol": "=", "Result value": 30.5}
{"Compound": "COc1ccc(S(=O)(=O)NCCCNc2nccc(-c3c(-c4ccc(F)cc4)nc4sccn34)n2)cc1", "Operator symbol": "=", "Result value": 58.2}
{"Compound": "CN1C/C(=C\\c2ccco2)c2nc(N)nc(-c3ccco3)c2C1", "Operator symbol": ">", "Result value": 100}
{"Compound": "Cc1[nH]n(C(=O)c2ccc(Cl)cc2)c(=O)c1/C=C1\\C(O)=CC(=O)c2ccccc21", "Operator symbol": ">", "Result value": 100}
{"Compound": "NNC(=O)COc1nc(-c2cccs2)nc2ccc(I)cc12", "Operator symbol": "=", "Result value": 39.4}
{"Compound": "C(/Cc1ccc2c(c1)OCO2)=N\\NC1=NCCCCN1", "Operator symbol": ">", "Result value": 100}
{"Compound": "COC(=O)C1CCC(=S)N1C(C)=O (configuration not stated)", "Operator symbol": ">", "Result value": 100}
